These entries and their values trace back to paper PMC7182439.

Measured Target: UniProtKB Q99ZW2
Reported Endpoint: IC50

- Cc1ccc(S(=O)(=O)N2CC[C@@H]3[C@H](CO)Nc4ccc(-c5ccccc5F)cc4[C@@H]32)cc1: 22 µM

----------
Measured Target: SpCas9 (Streptococcus pyogenes, UniProt Q99ZW2)
Sequence (Q99ZW2 whole entry): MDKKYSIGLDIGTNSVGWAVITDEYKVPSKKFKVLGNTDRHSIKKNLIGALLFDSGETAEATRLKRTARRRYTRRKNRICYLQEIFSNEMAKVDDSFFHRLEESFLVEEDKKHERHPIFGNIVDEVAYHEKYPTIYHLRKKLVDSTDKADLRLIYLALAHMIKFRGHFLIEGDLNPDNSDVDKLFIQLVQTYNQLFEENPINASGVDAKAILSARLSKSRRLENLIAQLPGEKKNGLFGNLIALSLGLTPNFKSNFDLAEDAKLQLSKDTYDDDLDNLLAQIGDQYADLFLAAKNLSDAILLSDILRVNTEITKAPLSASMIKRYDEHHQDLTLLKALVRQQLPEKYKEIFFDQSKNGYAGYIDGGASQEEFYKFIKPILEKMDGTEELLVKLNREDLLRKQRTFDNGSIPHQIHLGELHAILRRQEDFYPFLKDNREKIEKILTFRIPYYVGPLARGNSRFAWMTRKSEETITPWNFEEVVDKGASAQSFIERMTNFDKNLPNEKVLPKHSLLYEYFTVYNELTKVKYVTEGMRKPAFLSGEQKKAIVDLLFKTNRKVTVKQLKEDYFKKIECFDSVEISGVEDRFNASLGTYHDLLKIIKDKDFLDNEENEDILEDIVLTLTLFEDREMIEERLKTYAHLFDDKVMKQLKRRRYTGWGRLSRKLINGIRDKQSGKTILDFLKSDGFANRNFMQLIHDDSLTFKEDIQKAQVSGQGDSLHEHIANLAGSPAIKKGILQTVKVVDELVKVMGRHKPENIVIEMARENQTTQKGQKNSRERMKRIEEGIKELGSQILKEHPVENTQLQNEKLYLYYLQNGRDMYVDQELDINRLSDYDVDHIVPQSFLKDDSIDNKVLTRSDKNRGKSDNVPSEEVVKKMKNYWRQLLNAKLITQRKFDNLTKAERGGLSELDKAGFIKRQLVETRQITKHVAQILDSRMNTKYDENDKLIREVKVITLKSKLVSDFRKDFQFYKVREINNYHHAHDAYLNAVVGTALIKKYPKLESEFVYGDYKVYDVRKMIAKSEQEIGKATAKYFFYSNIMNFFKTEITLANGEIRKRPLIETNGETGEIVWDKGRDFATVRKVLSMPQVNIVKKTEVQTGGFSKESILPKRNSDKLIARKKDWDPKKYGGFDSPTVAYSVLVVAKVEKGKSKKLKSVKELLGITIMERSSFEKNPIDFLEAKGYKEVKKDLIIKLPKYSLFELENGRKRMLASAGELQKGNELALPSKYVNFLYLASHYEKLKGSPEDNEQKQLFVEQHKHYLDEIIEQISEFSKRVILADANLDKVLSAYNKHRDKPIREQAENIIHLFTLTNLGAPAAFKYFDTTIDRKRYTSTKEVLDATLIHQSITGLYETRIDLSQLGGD
Protocol Details: eGFP-disruption assay
Reported Endpoint: EC50 (µM)

* COc1cccc(-c2ccc3c(c2)[C@H]2[C@H](CCN2C(=O)Cc2ccncc2)[C@H](CO)N3C)c1 [BRD3433] | 9.3
